Target: T1, N-terminal biotinylated PE9413 (not fully specified; N-terminal biotin)
T1 construct: also called PE9411; N-ter PE9413
T1 peptide: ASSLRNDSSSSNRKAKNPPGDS
Experiment: yeast-displayed scFv, flow cytometry titration of N-terminal biotinylated peptide
Recorded Endpoint: Kd (nM)
Supply the numeric figure in nM, leaving out any unit text.

Exam item: // query Kd value for entry A84P scFv displayed on yeast (scFv, V domains shown, Aga2-anchored, VH-VL orientation; not shown: linker; SV5 tag) VH: QVQLVQSGAELKKPGSSVKISCKSSGYAFSSQWMNWVKQRPGQGLEWIGQIYPEDGDTHMNGKFKGKATLTADKSTSTAYMELSSLTSEDSAVYFCSSSNWVGSYWGQGTLVTVSS VL: DVVMTQSPLSLPVTLGQPASISCKSSQSLLEEDGNTYLNWLQQRPGQSPRRLIYLVDRLDIGVPDRFSGSGSGTDFTLKISRVEAEDVGVYYCWQGTDLPQTFGGGTKVEIK
Marked response: 3.93

Exam item: // query Kd value for entry B104P scFv displayed on yeast (scFv, V domains shown, Aga2-anchored, VH-VL orientation; not shown: linker; SV5 tag) VH: QVQLVQSGAELKKPGSSVKISCKSSGYAFSSQWMNWVKQRPGQGLEWIGQIYPDDGDTHYNDKFKGKATLTADKSTSTAYMELSSLTSEDSAVYFCSSSNWVGSYWGQGTLVTVSS VL: DVVMTQSPLSLPVTLGQPASISCKSSQSLLEADGNTYLNWLQQRPGQSPRRLIYLVDRLDSGVPDRFSGSGSGTDFTLKISRVEAEDVGVYYCWQGTDLPQTFGGGTKVEIK
Marked response: 6.38

Exam item: // query Kd value for entry D44P scFv displayed on yeast (scFv, V domains shown, Aga2-anchored, VH-VL orientation; not shown: linker; SV5 tag) VH: QVQLVQSGAELKKPGSSVKISCKSSGYAFSSQWMNWVKQRPGQGLEWIGQIYPEDGDIHYNGKFKGKATLTADKSTSTAYMELSSLTSEDSAVYFCSSSNWVGSYWGQGTLVTVSS VL: DVVMTQSPLSLPVTLGQPASISCKSSQSLLEEDGNTYLNWLQQRPGQSPRRLIYLVDRLDSGVPDRFSGSGSGTDFTLKISRVEAEDVGVYYCWQGSHLPQTFGGGTKVEIK
Marked response: 4.61

Exam item: // query Kd value for entry H74P scFv displayed on yeast (scFv, V domains shown, Aga2-anchored, VH-VL orientation; not shown: linker; SV5 tag) VH: QVQLVQSGAELKKPGSSVKISCKSSGYAFSSQWMNWVKQRPGQGLEWIGQIYPEDGDTHYNGKFKGKATLTADKSTSTAYMELSSLTSEDSAVYFCSSSNWVGSYWGQGTLVTVSS VL: DVVMTQSPLSLPVTLGQPASISCKSSQSLLEEDGNTYLNWLQQRPGQSPRRLIYLVDRLDLGVPDRFSGSGSGTDFTLKISRVEAEDVGVYYCWQGSHLPQTFGGGTKVEIK
Marked response: 4.9

Exam item: // query Kd value for entry H83P scFv displayed on yeast (scFv, V domains shown, Aga2-anchored, VH-VL orientation; not shown: linker; SV5 tag) VH: QVQLVQSGAELKKPGSSVKISCKSSGYAFSSQWMNWVKQRPGQGLEWIGQIYPGDGDIHYNDKFKGKATLTADKSTSTAYMELSSLTSEDSAVYFCSSSNWVGSYWGQGTLVTVSS VL: DVVMTQSPLSLPVTLGQPASISCKSSQSLLESDGNTYLNWLQQRPGQSPRRLIYLVDRLDSGVPDRFSGSGSGTDFTLKISRVEAEDVGVYYCWQGTDLPQTFGGGTKVEIK
Marked response: 5.3

Recorded values, source patent US20240182556A1.
